# Lookup of reported Kd keyed by entry
Molecular target: T1, EsCas13d, nuclease-dead (Eubacterium siraeum, UniProt B0MS50, R295A;H300A;R849A;H854A)
T1 sequence: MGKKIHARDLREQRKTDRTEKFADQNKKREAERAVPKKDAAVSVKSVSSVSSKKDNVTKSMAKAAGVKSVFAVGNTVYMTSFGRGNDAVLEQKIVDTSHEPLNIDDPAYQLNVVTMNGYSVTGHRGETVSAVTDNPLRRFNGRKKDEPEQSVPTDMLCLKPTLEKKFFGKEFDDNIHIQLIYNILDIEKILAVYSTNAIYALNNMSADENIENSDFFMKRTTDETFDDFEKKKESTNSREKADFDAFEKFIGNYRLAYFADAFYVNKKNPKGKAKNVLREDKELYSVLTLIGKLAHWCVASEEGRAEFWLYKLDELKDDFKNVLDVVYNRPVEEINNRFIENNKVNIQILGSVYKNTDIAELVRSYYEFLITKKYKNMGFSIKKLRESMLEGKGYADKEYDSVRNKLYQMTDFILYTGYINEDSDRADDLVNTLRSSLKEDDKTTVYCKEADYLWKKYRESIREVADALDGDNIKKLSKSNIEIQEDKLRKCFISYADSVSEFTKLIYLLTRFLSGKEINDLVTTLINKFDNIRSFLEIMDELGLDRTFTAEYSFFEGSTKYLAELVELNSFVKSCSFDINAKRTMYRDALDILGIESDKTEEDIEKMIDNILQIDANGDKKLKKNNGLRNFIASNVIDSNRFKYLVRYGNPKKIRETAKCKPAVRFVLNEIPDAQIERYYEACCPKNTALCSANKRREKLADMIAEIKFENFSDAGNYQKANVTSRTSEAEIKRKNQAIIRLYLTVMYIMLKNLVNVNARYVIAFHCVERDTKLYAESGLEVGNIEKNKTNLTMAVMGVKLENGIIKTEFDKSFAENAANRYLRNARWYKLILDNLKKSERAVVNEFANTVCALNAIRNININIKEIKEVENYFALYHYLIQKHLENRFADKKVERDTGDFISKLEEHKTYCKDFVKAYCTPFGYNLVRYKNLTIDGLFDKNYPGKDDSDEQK
Assay: crRNA (strand 1, pre-loaded); Mg2+; 40 mM Tris-HCl pH 7.5, 150 mM NaCl, 6 mM MgCl2, 1 mM DTT, 0.1% Tween-20, 0.2 mg/ml BSA; 25 C; 10 min per concentration, then washed
Details: tags: His6-TwinStrep-SUMO cleaved; N-terminal SNAP kept (SNAP-Surface 488); label: 3' end held by stalled T7 RNA polymerase

Binder	Reading Unit	Kd
target 1 G12A,U19A (mixed) RNA 1: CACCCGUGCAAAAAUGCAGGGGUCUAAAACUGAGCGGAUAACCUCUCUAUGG RNA 2: GGGAAUGGAUCCACAUCUACGAAUUCGUACCAAAGAGAGAUUAUCCGCUCACCGAGAUCGGAAGAGCACACGU	nM	51
target 1 insC 3' of 22,insC 3' of 8 (mixed) RNA 1: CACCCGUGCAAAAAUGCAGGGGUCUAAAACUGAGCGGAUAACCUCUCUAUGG RNA 2: GGGAAUGGAUCCACAUCUACGAAUUCGUACCCAUAGAGAGGUUAUCCCGCUCACCGAGAUCGGAAGAGCACACGU	nM	18
target 2 MT 5'PFS GGU 3'PFS CUA (mixed) RNA 1: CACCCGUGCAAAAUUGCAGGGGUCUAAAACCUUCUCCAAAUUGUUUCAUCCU RNA 2: GGGAAUGGAUCCACAUCUACGAAUUCGGUAGGAUGAAACAAUUUGGAGAAGCUAAGAUCGGAAGAGCACACGU	nM	12.6
target 3 U8C,U22A (mixed) RNA 1: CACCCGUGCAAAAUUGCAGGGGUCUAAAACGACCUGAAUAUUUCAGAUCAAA RNA 2: GGGAAUGGAUCCACAUCUACGAAUUCGUUAUUGAUCUGAAAUACUCAGGUCUGCAGAUCGGAAGAGCACACGU	nM	42.3
target 2 MT 5'PFS CAC 3'PFS UGU (mixed) RNA 1: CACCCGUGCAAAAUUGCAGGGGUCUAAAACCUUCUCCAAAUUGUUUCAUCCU RNA 2: GGGAAUGGAUCCACAUCUACGAAUUCCACAGGAUGAAACAAUUUGGAGAAGUGUAGAUCGGAAGAGCACACGU	nM	2.27
target 1 A1C,U11C (mixed) RNA 1: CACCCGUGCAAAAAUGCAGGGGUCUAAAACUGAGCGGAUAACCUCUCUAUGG RNA 2: GGGAAUGGAUCCACAUCUACGAAUUCGUACCAUAGAGAGGCUAUCCGCUCCCCGAGAUCGGAAGAGCACACGU	nM	22
target 3 insU 3' of 22,insC 3' of 4 (mixed) RNA 1: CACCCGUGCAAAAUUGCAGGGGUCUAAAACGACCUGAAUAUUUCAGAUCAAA RNA 2: GGGAAUGGAUCCACAUCUACGAAUUCGUUUUUUGAUCUGAAAUAUUCAGCGUCUGCAGAUCGGAAGAGCACACGU	nM	19.5
target 1 MT 5'PFS GUA 3'PFS CGG (mixed) RNA 1: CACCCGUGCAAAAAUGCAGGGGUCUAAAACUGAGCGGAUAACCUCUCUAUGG RNA 2: GGGAAUGGAUCCACAUCUACGAAUUCGUACCAUAGAGAGGUUAUCCGCUCACGGAGAUCGGAAGAGCACACGU	nM	15.2
target 3 insA 3' of 7,insC 3' of 4 (mixed) RNA 1: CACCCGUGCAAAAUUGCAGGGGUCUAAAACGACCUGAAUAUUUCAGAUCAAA RNA 2: GGGAAUGGAUCCACAUCUACGAAUUCGUUUUUGAUCUGAAAUAUUACAGCGUCUGCAGAUCGGAAGAGCACACGU	nM	48.5
target 1 insG 3' of 16,insC 3' of 1 (mixed) RNA 1: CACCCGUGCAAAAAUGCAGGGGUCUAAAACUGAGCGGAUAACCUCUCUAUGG RNA 2: GGGAAUGGAUCCACAUCUACGAAUUCGUACCAUAGAGGAGGUUAUCCGCUCACCCGAGAUCGGAAGAGCACACGU	nM	11.9
